# TEST TARGET: human PDE2A1 (Homo sapiens (Human), UniProt O00408)
# Sequence (O00408 other isoform, or with tags, fused parts or gaps): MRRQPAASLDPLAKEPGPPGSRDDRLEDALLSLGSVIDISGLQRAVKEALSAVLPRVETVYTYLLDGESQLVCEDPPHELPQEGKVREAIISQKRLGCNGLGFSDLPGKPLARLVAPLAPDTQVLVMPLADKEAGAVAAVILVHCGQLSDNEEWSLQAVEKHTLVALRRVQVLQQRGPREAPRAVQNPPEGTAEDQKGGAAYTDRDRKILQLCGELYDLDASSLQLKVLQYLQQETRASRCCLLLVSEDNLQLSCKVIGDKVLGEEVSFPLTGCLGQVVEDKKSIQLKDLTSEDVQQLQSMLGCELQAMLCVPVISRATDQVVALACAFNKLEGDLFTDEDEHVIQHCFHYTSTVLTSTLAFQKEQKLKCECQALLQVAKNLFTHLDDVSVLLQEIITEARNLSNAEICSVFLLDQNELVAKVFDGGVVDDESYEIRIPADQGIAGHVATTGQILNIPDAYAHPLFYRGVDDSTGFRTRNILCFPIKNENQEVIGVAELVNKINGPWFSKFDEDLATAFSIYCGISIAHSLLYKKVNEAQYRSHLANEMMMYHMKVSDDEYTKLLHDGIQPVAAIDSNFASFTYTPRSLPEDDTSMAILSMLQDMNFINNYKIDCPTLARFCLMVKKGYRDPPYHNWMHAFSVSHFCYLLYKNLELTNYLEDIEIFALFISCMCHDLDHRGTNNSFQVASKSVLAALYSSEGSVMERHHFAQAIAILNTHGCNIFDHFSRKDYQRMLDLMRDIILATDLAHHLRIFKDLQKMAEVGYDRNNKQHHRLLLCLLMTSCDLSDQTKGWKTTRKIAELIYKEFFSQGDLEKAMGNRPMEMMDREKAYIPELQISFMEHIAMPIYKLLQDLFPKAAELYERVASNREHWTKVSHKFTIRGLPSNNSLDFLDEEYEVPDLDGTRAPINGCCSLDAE
# ASSAY PROTOCOL: IMAP FP PDE selectivity panel, human PDE2A1
# Assay type: biochemical
# DETAILS: Human PDE2, Lab B; read-out: Human PDE2 Ki (nM) - Lab B
Binning scheme for Ki: bottom end (below 5 nM), midrange (5 nM to below 20 nM), top end (20 nM or more)

Consider Cc1nc(C(=O)NC(C)(C)c2cc(F)c(C(F)(F)F)cc2Cl)cc(=O)[nH]1 . To which Ki class does it belong?
top end

Using the reported Ki, which band applies to CCc1nc(C(=O)N[C@H](C)c2ccc(OC(F)(F)F)c(F)c2)cc(=O)[nH]1 ?
bottom end

Form field 'band' for Cc1nc(C(=O)N[C@@H](c2ccc(OC(F)F)c(F)c2)C2(C)CC2)cc(=O)[nH]1
midrange

Input CC(C)(C)[C@@H](NC(=O)c1cc(=O)[nH]c(C2CC2)n1)c1ccc(OC(F)(F)F)c(F)c1 ; output its category
bottom end

Class (by measured Ki) for CC[C@@H](NC(=O)c1cc(=O)[nH]c(Cc2ccc(OC)cc2)n1)c1ccc(OC(F)(F)F)c(F)c1
bottom end

Bin this entry: COc1cc(CNC(=O)c2cc(=O)[nH]c(-c3ccccc3)n2)cc(OC)c1OC
top end

Pick a category. Item: CSCC(NC(=O)c1cc(=O)[nH]c(-c2ccccc2)n1)c1ccc(C(F)(F)F)cc1 (centres unmarked)
midrange

====

# TEST TARGET: UniProtKB O00408
# ASSAY PROTOCOL: IMAP FP PDE selectivity panel, human PDE2A1
# Format: biochemical
# DETAILS: Human PDE2, Lab A; read-out: Human PDE2 Ki (nM) - Lab A
# Description: Selectivity for PDE2, as compared to other PDE families, was assessed using the IMAP® technology. Human PDE 10A2 enzyme was prepared from cytosolic fractions of transiently transfected HEK cells. […] Assays for PDE 1 through 11 were performed in parallel at room temperature in 384-well microtiter plates with an incubation volume of 20.2 μL. […] The intrinsic PDE2 inhibitory activity of a compound which may be used in accordance with the present invention may be determined by these assays.
REPORTED PROPERTY: Ki

[[record]]
compound_smiles = "CC[C@@H](NC(=O)c1cc(=O)[nH]c(C2CC2)n1)c1ccc(SC(F)(F)F)cc1"
test_target = "UniProtKB O00408"
observed_measurement = "5.5 nM"


I need Ki for every entry listed below, if you could help.
1. CC[C@@H](NC(=O)c1cc(=O)[nH]c(C)n1)c1ccc(SC(F)(F)F)c(F)c1
2. COCc1nc(C(=O)N[C@@H](c2ccc(OC(F)(F)F)c(F)c2)C2CC2)cc(=O)[nH]1

["5.5 nM", "~13 nM"]

====

# TEST TARGET: human PDE2A1 (Homo sapiens (Human))
# ASSAY PROTOCOL: IMAP FP PDE selectivity panel, human PDE2A1
# Type: biochemical
# DETAILS: Human PDE2, Lab A; read-out: Human PDE2 Ki (nM) - Lab A
Record form. Attribute: log10 Ki. Fill in for each entry.
Scale type: logarithmic (base 10). Underlying Ki unit: nM.

[[record]]
molecule = "Cc1nc(C(=O)NC(C)(C)c2ccc(C(F)(F)F)c(F)c2)cc(=O)[nH]1"
observed_measurement = 1.26

[[record]]
molecule = "Cc1nc(C(=O)N[C@H](C)c2ccc(-c3ccccc3F)cc2)cc(=O)[nH]1"
observed_measurement = 2.14

[[record]]
molecule = "Cc1nc(C(=O)NC(C)c2ccc(C(F)(F)F)cc2Cl)cc(=O)[nH]1 (stereo not shown)"
observed_measurement = 2.50

[[record]]
molecule = "CC(C)[C@@H](NC(=O)c1cc(=O)[nH]c(C2CC2)n1)c1ccc(OC(F)(F)F)c(F)c1"
observed_measurement = 0.08

[[record]]
molecule = "Cc1nc(C(=O)N[C@@H](c2ccc(C(F)(F)F)c(F)c2)C(C)C)cc(=O)[nH]1"
observed_measurement = 0.94


Kindly give each listed record's log10 Ki.
1. Cc1nc(C(=O)N[C@@H](c2ccc(OC(F)(F)F)c(F)c2)C(C)C)cc(=O)[nH]1
2. CC(C)[C@@H](NC(=O)c1cc(=O)[nH]c(-c2ccccc2)n1)c1ccc(OC(F)(F)F)cc1
3. Cc1nc(C(=O)NC2(c3ccc(SC(F)(F)F)cc3)CCC2)cc(=O)[nH]1
4. CCc1nc(C(=O)N[C@H](C)c2ccc(C(F)(F)F)cc2)cc(=O)[nH]1

1. 0.75
2. 0.32
3. 1.65
4. 1.63
